- study-target: T1, human NMI (N-myc Interacting protein) (human, UniProt Q13287 1-307, limits assumed)
- T1 construct: Immunogen and ELISA coating antigen; also called hNMI; antigen 1
- T1 sequence (looked up): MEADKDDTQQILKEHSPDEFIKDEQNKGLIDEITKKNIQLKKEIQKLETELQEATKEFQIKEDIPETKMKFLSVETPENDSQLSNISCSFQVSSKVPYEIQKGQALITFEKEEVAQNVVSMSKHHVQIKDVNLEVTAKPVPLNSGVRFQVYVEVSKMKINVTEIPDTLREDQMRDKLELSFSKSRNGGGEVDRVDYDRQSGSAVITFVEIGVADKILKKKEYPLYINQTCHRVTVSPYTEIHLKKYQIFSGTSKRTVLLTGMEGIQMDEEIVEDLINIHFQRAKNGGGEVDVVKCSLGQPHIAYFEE
- assay-procedure: I-ELISA, hNMI coated 1 ug/mL; antibody 1.2207031 ng/mL
The following binders are listed with their measured OD450 values.
Phrase the answer as number then unit, nothing more needed.

Solved cases below.
- B-8 (antibody, V domains shown, Rabbit monoclonal antibody; also called B8-1; B-8-biotin (biotin-labelled form)) VH: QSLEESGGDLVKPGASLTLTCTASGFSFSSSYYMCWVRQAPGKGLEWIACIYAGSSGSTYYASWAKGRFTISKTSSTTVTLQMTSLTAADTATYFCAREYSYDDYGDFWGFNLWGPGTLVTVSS VL: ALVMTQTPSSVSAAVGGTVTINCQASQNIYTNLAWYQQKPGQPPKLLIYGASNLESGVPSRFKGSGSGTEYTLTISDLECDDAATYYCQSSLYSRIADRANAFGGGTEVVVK: 0.084 OD450
- 39B4 (antibody, V domains shown, Rabbit monoclonal antibody; also called 39B4-1; 39B4-1-biotin (biotin-labelled form)) VH: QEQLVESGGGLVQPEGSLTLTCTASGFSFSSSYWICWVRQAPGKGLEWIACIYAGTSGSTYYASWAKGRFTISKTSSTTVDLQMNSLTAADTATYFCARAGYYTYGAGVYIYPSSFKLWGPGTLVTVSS VL: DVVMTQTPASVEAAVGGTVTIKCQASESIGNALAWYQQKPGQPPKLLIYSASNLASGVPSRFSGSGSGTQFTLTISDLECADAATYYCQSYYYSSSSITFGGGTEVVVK: 0.077 OD450
- 94C4 (antibody, V domains shown, Rabbit monoclonal antibody; also called 94C4-1; 94C4-1-biotin (biotin-labelled form)) VH: QSLEESGGGLVQPEGSLTLTCKASGFDFSSNAMCWVRQAPGKGLEWIACISSASSGSSGSTYYASWAKGRFTISKTSSTTVTLQMTSLTAADMATYFCARDGYDLWGPGTLVTVSS VL: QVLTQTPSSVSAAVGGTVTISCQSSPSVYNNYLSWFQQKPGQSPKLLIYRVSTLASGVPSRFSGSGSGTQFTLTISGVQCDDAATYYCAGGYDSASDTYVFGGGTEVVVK: 0.092 OD450

Below: the item to evaluate.
## Input Quick one: OD450 for 98G10 (antibody, V domains shown, Rabbit monoclonal antibody; also called 98G10-1; 98G10-1-biotin (biotin-labelled form)) VH: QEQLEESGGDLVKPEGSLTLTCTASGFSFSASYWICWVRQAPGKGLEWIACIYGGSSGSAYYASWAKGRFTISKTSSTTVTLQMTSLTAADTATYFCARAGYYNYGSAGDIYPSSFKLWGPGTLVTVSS VL: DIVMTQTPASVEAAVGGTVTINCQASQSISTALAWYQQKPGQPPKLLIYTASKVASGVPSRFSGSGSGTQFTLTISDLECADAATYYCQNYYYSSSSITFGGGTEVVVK ?
## Output 0.065 OD450
